# Tested on: Fibroblast
# Experimental Details: Multiplex assay against human fibroblast
# Type: toxicity, cell-based
# Cond: 48 h, 10 µM, compound concentration 10 uM, replicate 1
Please provide measured Total Cell Count for the entries that follow.
Please respond with just the number, no unit label.

Exercise: Quick check: Total Cell Count of CN1CCN(Cc2ccc(-c3cnc4[nH]cc(-c5ccc6[nH]ccc6c5)c4c3)cc2)CC1 ?
Key: 121

Exercise: Quick check: Total Cell Count of Cc1c(Nc2ccc(S(=O)(=O)N3CCN(C)CC3)cc2F)nc2ccc(-c3cnn(C4CC4)c3)cn2c1=O ?
Key: 344

Exercise: Quick check: Total Cell Count of Cc1ccc(S(=O)(=O)NC2c3ccccc3Oc3ccccc32)cc1 ?
Key: 133

Exercise: Quick check: Total Cell Count of N#Cc1cccc(C(=O)Nc2cc(-c3ccccc3)nn2-c2ccccc2)c1 ?
Key: 126

Exercise: Quick check: Total Cell Count of CN1C(=O)[C@@H](NC(=O)c2cc3ccccc3[nH]2)N=C(c2ccccc2)c2ccccc21 [DEVAZEPIDE] ?
Key: 107

Exercise: Quick check: Total Cell Count of Cc1c(P(=S)(c2ccccc2)c2ccccc2)n2ccccc2[n+]1C/C=C/c1ccccc1.[Br-] ?
Key: 141

Exercise: Quick check: Total Cell Count of CCCCN(CC)c1nc(C)nc2c1c(C)cn2-c1c(C)cc(C)cc1C.Cl ?
Key: 104

Exercise: Quick check: Total Cell Count of CC(/C=C1\SC(=S)N(CCCC(=O)Nc2ccc(C(=O)O)c(O)c2)C1=O)=C\c1ccccc1 ?
Key: 297

Exercise: Quick check: Total Cell Count of Cl.NC[C@@H]1O[C@H](C23CC4CC(CC(C4)C2)C3)Cc2c1ccc(O)c2O ?
Key: 169
